- Target Or System: Estrogen Receptor (ERα) in MCF-7 cells (Homo sapiens (Human))
- Sequence (P03372 whole entry): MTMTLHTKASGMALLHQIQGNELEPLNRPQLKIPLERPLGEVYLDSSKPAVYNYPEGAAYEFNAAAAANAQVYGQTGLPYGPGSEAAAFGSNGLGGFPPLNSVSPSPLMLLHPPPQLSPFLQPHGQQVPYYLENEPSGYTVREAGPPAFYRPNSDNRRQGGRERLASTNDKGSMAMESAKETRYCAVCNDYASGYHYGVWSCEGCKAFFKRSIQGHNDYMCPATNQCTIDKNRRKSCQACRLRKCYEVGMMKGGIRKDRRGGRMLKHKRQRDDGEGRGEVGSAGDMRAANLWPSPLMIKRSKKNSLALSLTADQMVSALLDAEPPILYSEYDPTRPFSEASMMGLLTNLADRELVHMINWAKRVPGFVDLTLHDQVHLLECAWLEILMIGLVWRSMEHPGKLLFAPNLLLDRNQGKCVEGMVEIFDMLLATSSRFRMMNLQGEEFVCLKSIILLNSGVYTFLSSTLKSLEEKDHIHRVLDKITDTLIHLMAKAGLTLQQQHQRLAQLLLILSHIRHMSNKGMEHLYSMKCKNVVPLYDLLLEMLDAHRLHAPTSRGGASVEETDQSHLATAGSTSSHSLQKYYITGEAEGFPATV
- Method Summary: MCF-7 ER down-regulation assay (immuno-fluorescence)
- Study Conditions: 18-22 hours incubation
Outcome Measure: IC50 (nM)

>>> experimental_result("C[C@@H]1Cc2c([nH]c3ccccc23)[C@@H](c2ccc(OCCNCCCF)cc2C#N)N1CC1(F)CC1 [Example 29]")
19

[I] C[C@@H]1Cc2c([nH]c3ccccc23)[C@@H](c2c(F)cc(NCCNCCCF)cc2F)N1CC(F)(F)CO [Example 46]
[II] C[C@@H]1Cc2c([nH]c3ccccc23)[C@@H](c2ccc(OCCNCCCF)cc2)N1CC(F)F [Example 56]
Between I and II , whose recorded IC50 is greater? Please identify the chosen entry by its label.
II

###

- Method Summary: Thermodynamic solubility (shake flask)
- Assay type: physicochemical
- Study Conditions: aqueous phosphate buffer, 25 °C, pH 7.4, aqueous buffer, thermodynamic from solid, aqueous phosphate buffer pH 7.4, 24 hours
Outcome Measure: solubility at 24 h (µM)

Observe how each entry below is paired with its result.
>>> experimental_result("C[C@@H]1Cc2c([nH]c3ccccc23)[C@@H](c2c(F)cc(OCCNCCCF)cc2F)N1CC(F)F [Example 13]")
150
>>> experimental_result("C[C@@H]1Cc2c([nH]c3ccccc23)[C@@H](c2ccc(OCCNCCCF)cc2F)N1CC(C)(F)F [Example 55]")
32

[P] COc1cc(OCCNCCCF)ncc1[C@@H]1c2[nH]c3ccccc3c2C[C@@H](C)N1CC(C)(C)F [Example 36]
[Q] C[C@@H]1Cc2c([nH]c3ccccc23)[C@@H](c2c(F)cc(OCCNCCCF)cc2F)N1CC(C)(F)CO (single isomer, unassigned) [Example 17]
P or Q : whose solubility at 24 h is greater? Let me know the label of the one you choose.
Q

###

- Method Summary: Human plasma protein binding (equilibrium dialysis)
- Format: in vitro ADME
- Study Conditions: dialysis 18 hours
Outcome Measure: Human plasma protein binding (% free)

// below: answered compounds
>>> experimental_result("COc1cc(NCCNCCCF)ccc1[C@@H]1c2[nH]c3ccccc3c2C[C@@H](C)N1CC(F)F")
1.3
>>> experimental_result("C[C@@H]1Cc2c([nH]c3ccccc23)[C@@H](c2c(F)cc(OCC(CO)NCCCF)cc2F)N1CC(C)(C)F (single isomer, unassigned) [Example 52]")
0.47
>>> experimental_result("C[C@@H]1Cc2c([nH]c3ccccc23)[C@@H](c2ccc(OCCNCCCF)cn2)N1CC1(F)COC1")
16

[a] COc1cc(OCCNCCCF)ccc1[C@@H]1c2[nH]c3ccccc3c2C[C@@H](C)N1CC(F)(F)F
[b] C[C@@H]1Cc2c([nH]c3ccccc23)[C@@H](c2ccc(OCCNCCCF)cc2)N1CC1(F)CC1
[c] C[C@@H]1Cc2c([nH]c3ccccc23)[C@@H](c2ccc(OC[C@H](C)NCCCF)cc2)N1CC1(F)COC1
Number of compounds to sort: 3. Sort criterion: Human plasma protein binding (% free), ascending. Write the labels in rank order as requested.
a, b, c

[I] C[C@@H]1Cc2c([nH]c3ccccc23)[C@@H](c2c(F)cc(OCCNCCCF)cc2F)N1CC(C)(F)CO (single isomer, unassigned) [Example 18]
[II] C[C@@H]1Cc2c([nH]c3ccccc23)[C@@H](c2c(F)cc(OCCNCCCF)cc2F)N1CC(F)F
Hey, which is lower on measured Human plasma protein binding (% free), I or II ? The response must carry the label of the picked entry.
II
(II: 1.6 % free, I: 2.4 % free)

[a] C[C@@H]1Cc2c([nH]c3ccccc23)[C@@H](c2c(F)cc(OCCNCCCF)cc2F)N1C[C@H](F)CF (single isomer, unassigned)
[b] C[C@@H]1Cc2c([nH]c3ccccc23)[C@@H](c2ccc(OCCNCCCF)cn2)N1CC1(F)CC1
Of a and b , whose reported Human plasma protein binding (% free) is numerically smaller? Use the label to indicate which entry you chose.
a
(a: 1.5 % free, b: 5.3 % free)

[P] C[C@@H]1Cc2c([nH]c3ccccc23)[C@@H](c2c(F)cc(OCCNCCCF)cc2F)N1CC(F)CF (single isomer, unassigned)
[Q] COc1cc(NCCNCCCF)ncc1[C@@H]1c2[nH]c3ccccc3c2C[C@@H](C)N1CC(F)(F)CO
Record comparison, field Human plasma protein binding (% free): mark the lower of P and Q . Answer format: the label of the selected item.
P

[1] C[C@@H]1Cc2c([nH]c3ccccc23)[C@@H](c2cnc(OCCNCCCF)cn2)N1CC(C)(C)F
[2] C[C@@H]1Cc2c([nH]c3ccccc23)[C@@H](c2ccc(OCCNCCCF)nc2)N1CC1(F)CC1
Higher Human plasma protein binding (% free): 1 or 2 ? Respond using the label that marks the chosen record.
2
(2: 3.0 % free, 1: 1.3 % free)

###

- Method Summary: physchem
- Study Conditions: 1-octanol/aqueous buffer, pH 7.4
Outcome Measure: logD

>>> experimental_result("C[C@@H]1Cc2c([nH]c3ccccc23)[C@@H](c2ccc(OC[C@H](C)NCCCF)cc2)N1CC1(F)COC1")
3
>>> experimental_result("COCC(F)(F)CN1[C@H](c2c(F)cc(OCCNCCCF)cc2F)c2[nH]c3ccccc3c2C[C@H]1C")
3.6
>>> experimental_result("C[C@@H]1Cc2c([nH]c3ccccc23)[C@@H](c2c(F)cc(OCCNCCCF)cc2F)N1C[C@H](F)CF (single isomer, unassigned)")
3.4
>>> experimental_result("C[C@@H]1Cc2c([nH]c3ccccc23)[C@@H](c2ccc(OCCNCCCF)cc2)N1CC(C)(F)F")
4
>>> experimental_result("COc1cc(NCCNCCCF)ccc1[C@@H]1c2[nH]c3ccccc3c2C[C@@H](C)N1CC1(F)CC1")
2.9

###

- Method Summary: Thermodynamic solubility (shake flask)
- Assay type: physicochemical
- Study Conditions: aqueous phosphate buffer pH 7.4, 24 hours, 25° C.
Outcome Measure: solubility at 24 h (µM)

>>> experimental_result("C[C@@H]1Cc2c([nH]c3ccccc23)[C@@H](c2ccc(OCCNCCCF)cc2)N1CC(F)CF (single isomer, unassigned)")
135
>>> experimental_result("C[C@@H]1Cc2c([nH]c3ccccc23)[C@@H](c2ccc(OCCNCCCF)cc2)N1C[C@H](F)CF (single isomer, unassigned)")
65
>>> experimental_result("COCC(C)(F)CN1[C@H](c2c(F)cc(OCCNCCCF)cc2F)c2[nH]c3ccccc3c2C[C@H]1C (single isomer, unassigned)")
53
>>> experimental_result("C[C@@H]1Cc2c([nH]c3ccccc23)[C@@H](c2c(F)cc(OCCNCCCF)cc2F)N1CC(F)CF (single isomer, unassigned)")
149

[I] C[C@@H]1Cc2c([nH]c3ccccc23)[C@@H](c2c(F)cc(OCC(CO)NCCCF)cc2F)N1CC(C)(C)F (single isomer, unassigned) [Example 52]
[II] C[C@@H]1Cc2c([nH]c3ccccc23)[C@@H](c2c(F)cc(OCC(CO)NCCCF)cc2F)N1CC(C)(C)F (single isomer, unassigned) [Example 53]
[III] C[C@@H]1Cc2c([nH]c3ccccc23)[C@@H](c2c(F)cc(OCCNCCCF)cc2F)N1CC(C)(F)CO (single isomer, unassigned)
Output the entries ranked by solubility at 24 h from maximum down to minimum. List the labels, following the order given in the request.
III, II, I
(III: 639 µM, II: 23 µM, I: 14 µM)

###

- Method Summary: Human plasma protein binding (equilibrium dialysis)
- Type: in vitro ADME
- Study Conditions: dialysis 18 hours
Outcome Measure: Human plasma protein binding (% free)

>>> experimental_result("C[C@@H]1Cc2c([nH]c3ccccc23)[C@@H](c2ccc(OCCNCCCF)cc2)N1CC(F)CF (single isomer, unassigned)")
1.6
>>> experimental_result("COc1cc(OCCNCCCF)ncc1[C@@H]1c2[nH]c3ccccc3c2C[C@@H](C)N1CC(F)F")
5.8
>>> experimental_result("CC(C)CN1[C@H](c2ccc(OCCNCCCF)cc2)c2[nH]c3ccccc3c2C[C@H]1C")
1.5
>>> experimental_result("COc1cc(OCCNCCCF)ncc1[C@@H]1c2[nH]c3ccccc3c2C[C@@H](C)N1CC(F)(F)CO")
12

[a] C[C@@H]1Cc2c([nH]c3ccccc23)[C@@H](c2ccc(OCCNCCCF)nc2)N1CC1(F)COC1
[b] C[C@@H]1Cc2c([nH]c3ccccc23)[C@@H](c2ccc(OCCNCCCF)cc2)N1CC(C)(F)F
[c] C[C@@H]1Cc2c([nH]c3ccccc23)[C@@H](c2c(F)cc(NCCNCCCF)cc2F)N1CC1(F)COC1
Rank order required: Human plasma protein binding (% free), descending. Provide the labels, sequenced as the question asks.
a, c, b
(a: 11 % free, c: 2.3 % free, b: 0.41 % free)
